These data points were gathered from ChEMBL document CHEMBL3124775.

Measured Ki (Carbonic anhydrase 1 (Homo sapiens, UniProt P00915))

Known results for compounds:
N#CCCCN1C(=O)c2ccccc2S1(=O)=O = > 50 µM
O=C1c2ccccc2S(=O)(=O)N1Cc1cccc(Br)c1 = > 50 µM
O=C(O)CN1C(=O)c2ccccc2S1(=O)=O = > 50 µM
CC(=O)CN1C(=O)c2ccccc2S1(=O)=O = > 50 µM
CCOC(=O)CN1C(=O)c2ccccc2S1(=O)=O = > 50 µM
O=C1c2ccccc2S(=O)(=O)N1Cc1ccccc1[N+](=O)[O-] = > 50 µM
O=C1c2ccccc2S(=O)(=O)N1Cc1cc(-c2ccc([N+](=O)[O-])cc2)no1 = > 50 µM
C#CCN1C(=O)c2ccccc2S1(=O)=O = > 50 µM

Challenge: Need Ki, item `O=C1c2ccccc2S(=O)(=O)N1Cc1cccc(F)c1`
Response given: > 50 µM

Challenge: Need Ki, item `O=C1c2ccccc2S(=O)(=O)N1Cc1c(F)cccc1F`
Response given: > 50 µM

Challenge: Need Ki, item `N#CCN1C(=O)c2ccccc2S1(=O)=O`
Response given: > 50 µM

Challenge: Need Ki, item `O=C1c2ccccc2S(=O)(=O)N1Cc1cccc([N+](=O)[O-])c1`
Response given: > 50 µM

Challenge: Need Ki, item O=C1c2ccccc2S(=O)(=O)N1CC(O)COc1ccc(Cl)cc1 (stereo not drawn)
Response given: > 50 µM

###

Measured Ki (UniProt Q16790)
Measure: Ki (nM)

O=C1c2ccccc2S(=O)(=O)N1Cc1cccc(Br)c1 = 360

I: C/C=C/CN1C(=O)c2ccccc2S1(=O)=O
II: C/C(CN1C(=O)c2ccccc2S1(=O)=O)=N\O (mixture of isomers)
III: O=C1c2ccccc2S(=O)(=O)N1Cc1ccc(Cl)c(Cl)c1
Challenge: Sort by Ki, descending. Answer format: the labels, in the requested order.
Response given: III, II, I
(III: 390 nM, II: 270 nM, I: 97 nM)

###

Measured Ki (UniProt:Q16790)
Measure: Ki (nM)

Known results for compounds:
O=C1c2ccccc2S(=O)(=O)N1Cc1cc(-c2ccc([N+](=O)[O-])cc2)no1 = 310
O=C(O)CN1C(=O)c2ccccc2S1(=O)=O = 310
N#CCCCN1C(=O)c2ccccc2S1(=O)=O = 290
O=C1c2ccccc2S(=O)(=O)N1Cc1ccccc1[N+](=O)[O-] = 91

P: C=CCN1C(=O)c2ccccc2S1(=O)=O
Q: O=C1c2ccccc2S(=O)(=O)N1CC(O)COc1ccc(Cl)cc1 (configuration not stated)
R: CCOC(=O)CN1C(=O)c2ccccc2S1(=O)=O
Challenge: Sort by Ki, descending. Answer format: the labels, in the requested order.
Response given: R, Q, P
(R: 330 nM, Q: 230 nM, P: 140 nM)

###

Measured Ki (Carbonic anhydrase 12 (Homo sapiens, UniProt O43570))
Write it as a number; the unit nM goes unstated.

Known results for compounds:
O=C1c2ccccc2S(=O)(=O)N1Cc1cccc([N+](=O)[O-])c1 = 24.6
C=CCN1C(=O)c2ccccc2S1(=O)=O = 94

Would you kindly look at the next entry?
Challenge: Which measured Ki belongs to `O=C1c2ccccc2S(=O)(=O)N1Cc1ccccc1[N+](=O)[O-]` , tested on Carbonic anhydrase 12 (Homo sapiens, UniProt O43570)?
Response given: 28.1
